Target: mouse TRPM3a2 (mTRPM3) ion channel (Mus musculus, UniProt J9SQF3)
Construct: expressed in transfected cells; host or cells: flip-in HEK293
Sequence (J9SQF3 1-1709 isoform J9SQF3-12): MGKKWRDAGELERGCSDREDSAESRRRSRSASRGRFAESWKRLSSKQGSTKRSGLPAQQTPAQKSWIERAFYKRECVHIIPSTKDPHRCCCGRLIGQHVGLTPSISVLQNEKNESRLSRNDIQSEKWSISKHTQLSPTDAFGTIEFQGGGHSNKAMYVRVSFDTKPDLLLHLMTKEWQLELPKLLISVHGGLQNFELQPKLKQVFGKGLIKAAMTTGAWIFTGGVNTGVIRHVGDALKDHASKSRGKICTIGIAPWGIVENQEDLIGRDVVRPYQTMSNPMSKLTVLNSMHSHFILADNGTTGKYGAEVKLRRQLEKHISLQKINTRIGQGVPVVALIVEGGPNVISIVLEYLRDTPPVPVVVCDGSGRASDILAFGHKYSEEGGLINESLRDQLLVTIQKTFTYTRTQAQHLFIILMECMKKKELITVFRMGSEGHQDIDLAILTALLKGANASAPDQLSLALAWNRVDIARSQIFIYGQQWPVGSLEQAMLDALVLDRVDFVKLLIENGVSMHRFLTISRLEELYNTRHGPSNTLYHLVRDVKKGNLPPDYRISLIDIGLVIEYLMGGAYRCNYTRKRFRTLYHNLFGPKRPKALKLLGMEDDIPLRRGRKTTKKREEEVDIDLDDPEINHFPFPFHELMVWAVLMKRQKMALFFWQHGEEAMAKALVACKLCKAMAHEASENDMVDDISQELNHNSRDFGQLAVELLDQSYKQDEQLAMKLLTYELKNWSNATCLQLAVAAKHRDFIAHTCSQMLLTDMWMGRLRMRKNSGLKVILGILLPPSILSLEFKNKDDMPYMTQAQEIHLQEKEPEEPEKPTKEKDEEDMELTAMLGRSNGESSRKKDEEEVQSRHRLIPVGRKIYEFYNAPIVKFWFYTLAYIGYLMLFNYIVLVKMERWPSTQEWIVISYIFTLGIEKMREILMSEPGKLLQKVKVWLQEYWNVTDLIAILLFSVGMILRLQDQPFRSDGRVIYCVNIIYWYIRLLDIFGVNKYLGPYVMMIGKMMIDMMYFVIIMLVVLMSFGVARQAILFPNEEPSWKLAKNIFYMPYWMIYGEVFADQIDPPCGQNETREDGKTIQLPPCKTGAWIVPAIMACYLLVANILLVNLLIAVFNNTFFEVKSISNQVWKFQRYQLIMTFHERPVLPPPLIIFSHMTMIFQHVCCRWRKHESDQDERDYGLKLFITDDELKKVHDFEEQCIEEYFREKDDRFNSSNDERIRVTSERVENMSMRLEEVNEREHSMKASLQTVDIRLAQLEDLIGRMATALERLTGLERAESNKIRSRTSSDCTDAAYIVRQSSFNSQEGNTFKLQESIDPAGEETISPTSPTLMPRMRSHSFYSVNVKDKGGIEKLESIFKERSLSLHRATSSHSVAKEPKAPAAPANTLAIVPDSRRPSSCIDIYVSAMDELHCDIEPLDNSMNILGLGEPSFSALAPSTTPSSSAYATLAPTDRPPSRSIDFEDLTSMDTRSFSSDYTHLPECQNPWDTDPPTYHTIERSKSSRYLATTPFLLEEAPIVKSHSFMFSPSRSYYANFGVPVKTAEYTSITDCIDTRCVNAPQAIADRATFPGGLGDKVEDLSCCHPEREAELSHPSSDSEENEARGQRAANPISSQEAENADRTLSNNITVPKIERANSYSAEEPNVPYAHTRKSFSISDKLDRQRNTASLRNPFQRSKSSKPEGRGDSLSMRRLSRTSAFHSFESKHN
Test: TRPM3 ion channel driven Ca2+ uptake, Fluo-4 AM assay (PS-stimulated, overexpressing flip-in HEK293 cells)
Type: cell-based
Conditions: PS (50 μM) stimulated, cpds. 500-599
pIC50: −log10 of the molar value.
Entries and their pIC50

Cc1ncccc1COc1ccc2oc(C)c(C(=O)NC3(C(N)=O)CCOC3)c2c1 (single isomer, unassigned) [591 - En 2]    ≥ 6.00

Form: item Cc1oc2ccc(OCc3cccc(O)n3)cc2c1C(=O)NC1CCNCC1(F)F (single isomer, unassigned) [569 - En 1] ; test system mouse TRPM3a2 (mTRPM3) ion channel (Mus musculus, UniProt J9SQF3); pIC50: 4.70 to 6.00

Form: item Cc1ncsc1COc1ccc2oc(C)c(C(=O)NC(C#N)C(N)=O)c2c1 (stereo not shown) ; test system mouse TRPM3a2 (mTRPM3) ion channel (Mus musculus, UniProt J9SQF3); pIC50: ≥ 6.00

Form: item Cc1ccc(COc2ccc3oc(C)c(C(=O)NC4(C(N)=O)CCOC4)c3c2)cn1 (single isomer, unassigned) [594 - En 1] ; test system mouse TRPM3a2 (mTRPM3) ion channel (Mus musculus, UniProt J9SQF3); pIC50: ≥ 6.00

The values you see were collected from patent US20240336602A1.
